# Test system: Danio rerio larvae (5 dpf)
# Assay explanation: difference in startle response vs DMSO (percentage points); higher = stronger startle than DMSO
# Test conditions: 10 µM; exposure time 6 h
Where a name gives a salt, the structure may show the parent alone.
Observable: difference in startle response

[[record]]
compound = "O=C(O[C@H]1CN2CCC1CC2)N1CCc2ccccc2[C@@H]1c1ccccc1 [Solifenacin (succinate)]"
observable = "difference in startle response"
numeric_result = -8.09

[[record]]
compound = "N#Cc1ccc(C(c2ccc(C#N)cc2)n2cncn2)cc1"
observable = "difference in startle response"
numeric_result = -5.86

[[record]]
compound = "C[C@H]1c2cccc(O)c2C(=O)C2=C(O)[C@]3(O)C(=O)C(C(N)=O)=C(O)[C@@H](N(C)C)[C@@H]3[C@@H](O)[C@@H]21 [Doxycycline (hyclate)]"
observable = "difference in startle response"
numeric_result = 3.11

[[record]]
compound = "CC(=O)NC[C@H]1CN(c2ccc(N3CCOCC3)c(F)c2)C(=O)O1"
observable = "difference in startle response"
numeric_result = 5.59

[[record]]
compound = "CCc1nc(N)nc(N)c1-c1ccc(Cl)cc1"
observable = "difference in startle response"
numeric_result = 1.26

[[record]]
compound = "CCN(CC)CC(=O)Nc1c(C)cccc1C"
observable = "difference in startle response"
numeric_result = -4.05

[[record]]
compound = "CC(COc1ccccc1)N(CCCl)Cc1ccccc1 (stereo not drawn) [Phenoxybenzamine (hydrochloride)]"
observable = "difference in startle response"
numeric_result = 2.85

[[record]]
compound = "CC(C)N1CCN(c2ccc(OCC3COC(Cn4cncn4)(c4ccc(Cl)cc4Cl)O3)cc2)CC1 (stereo not drawn)"
observable = "difference in startle response"
numeric_result = -1.46

